target: Inadl_8, Q8NI35; assay: holdup assay; set-up: key: below the threshold = too weak to quantify, mostly under pKd 3.1 to 4; settings: plain residues with an end cap or a label only (N-terminal biotin on a linker: ado-ado)
Sequence (Q8NI35 1425-1530): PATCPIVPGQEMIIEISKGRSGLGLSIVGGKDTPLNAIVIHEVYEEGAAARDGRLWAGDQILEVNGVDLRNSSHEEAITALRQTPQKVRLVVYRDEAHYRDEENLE
Measure: pKd

// solved cases for pKd follow
AHGSTRDQSI [KCNB1, Q14721] = below the threshold
TKDKVQETQI [LRRC4, Q9HBW1] = 3.5
DFKHTKSFII [JAM2, P57087] = below the threshold
PDSYHRRDFW [U2AF2, P26368] = 3.48
PKSNSSKEYV [CLDN7, O95471] = below the threshold

Request: Provide measured pKd value, entry: KKTPVSRSHL [SLC22A3, O75751]
Response: below the threshold

Request: Provide measured pKd value, entry: SQDPKKPSRV [CBY2, Q8NA61]
Response: 4.43
